Provenance of the data: the supplement of paper PMC6555819

Below: a set of entries, each annotated with reported PBM binding z-score.
- Tested on: PXR homodimer (NR concentration 270 nM)
- test name: PBM binding z-score (relative to random genomic background probes); higher = stronger binding; sequences stand for … in GC…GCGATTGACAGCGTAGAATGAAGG
Keep the answer to the number alone.

Reference set, count: 3
Item: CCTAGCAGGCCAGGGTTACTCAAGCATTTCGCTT | PBM binding z-score: -0.48

The reported PBM binding z-score of the sequence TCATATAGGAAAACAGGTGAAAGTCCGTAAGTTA was 0.476

Looking up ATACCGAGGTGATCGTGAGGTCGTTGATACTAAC , I see its PBM binding z-score listed as 1.35

Others:
Looking up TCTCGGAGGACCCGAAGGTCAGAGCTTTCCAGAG , I see its PBM binding z-score listed as -0.264

Input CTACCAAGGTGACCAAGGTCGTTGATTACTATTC . Output PBM binding z-score: 1.04

PBM binding z-score reading for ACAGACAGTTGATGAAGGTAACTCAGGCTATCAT : 0.258

The recorded PBM binding z-score for entry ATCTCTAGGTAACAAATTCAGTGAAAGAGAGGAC equals 0.486

Measured PBM binding z-score of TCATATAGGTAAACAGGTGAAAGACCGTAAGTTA : 0.35

Data point: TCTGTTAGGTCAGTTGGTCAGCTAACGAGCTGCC ; PBM binding z-score = 0.313

Record summary for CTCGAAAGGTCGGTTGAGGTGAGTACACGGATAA : reported PBM binding z-score = 0.172

The value of PBM binding z-score measured for the sequence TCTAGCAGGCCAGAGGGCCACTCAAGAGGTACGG turned out to be -0.284

Reported PBM binding z-score for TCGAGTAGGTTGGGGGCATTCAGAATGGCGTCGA was 1.75

Entry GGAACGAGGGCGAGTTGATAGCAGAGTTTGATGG ; PBM binding z-score = -0.021

GET /value?item= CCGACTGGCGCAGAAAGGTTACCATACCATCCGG &field=PBM binding z-score returns -0.51

The recorded PBM binding z-score for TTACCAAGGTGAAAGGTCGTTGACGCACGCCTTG is 0.552

Just so you know, measured PBM binding z-score for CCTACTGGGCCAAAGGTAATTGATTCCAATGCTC came out at -0.264

Record summary for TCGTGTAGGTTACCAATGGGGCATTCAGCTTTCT : reported PBM binding z-score = -0.304

The reported PBM binding z-score of the sequence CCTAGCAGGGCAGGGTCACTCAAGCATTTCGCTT was -0.402

The measured PBM binding z-score associated with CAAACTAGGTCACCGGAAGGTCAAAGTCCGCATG reads 1.99

PBM binding z-score reported for this sequence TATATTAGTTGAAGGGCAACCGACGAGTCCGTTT : 0.738

* * *

- Test system: RARb:RXRa (NR concentration 270 nM, RXRa partner concentration 90 nM)
- test name: PBM binding z-score (relative to random genomic background probes); higher = stronger binding; sequences stand for … in GC…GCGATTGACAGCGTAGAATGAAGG
Quick rule: PBM binding z-score of at least 2 means true, below that means false.

Request: // inclusive: PBM binding z-score at least 2? input: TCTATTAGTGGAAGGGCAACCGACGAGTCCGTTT
Result: false

Next:
Request: # bool: PBM binding z-score of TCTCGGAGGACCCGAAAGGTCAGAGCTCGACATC >= 2
Result: true

Request: Kindly determine if PBM binding z-score recorded for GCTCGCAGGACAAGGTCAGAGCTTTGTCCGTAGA is above or exactly 2.
Result: true

Request: Assess whether reported PBM binding z-score for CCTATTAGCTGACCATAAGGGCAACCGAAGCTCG sits at 2 or higher.
Result: false

Request: Assess whether reported PBM binding z-score for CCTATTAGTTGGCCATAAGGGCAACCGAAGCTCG sits at 2 or higher.
Result: false

Request: Determine whether this sequence has PBM binding z-score no lower than 2: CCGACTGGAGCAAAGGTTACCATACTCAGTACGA
Result: false

Request: Would you say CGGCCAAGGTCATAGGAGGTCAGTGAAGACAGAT shows PBM binding z-score at minimum 2?
Result: true

Request: Reported PBM binding z-score at or above 2? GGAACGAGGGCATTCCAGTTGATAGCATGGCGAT
Result: false

Request: Textbook exercise: given the entry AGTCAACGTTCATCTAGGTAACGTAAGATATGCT , state whether its PBM binding z-score is greater than or equal to 2.
Result: false

Request: # check: PBM binding z-score of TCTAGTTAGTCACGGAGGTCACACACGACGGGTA is greater than or equal to 2
Result: true

Request: Say whether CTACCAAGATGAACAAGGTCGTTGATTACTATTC shows PBM binding z-score of 2 or more.
Result: false

Request: For this sequence, is measured PBM binding z-score 2 or higher? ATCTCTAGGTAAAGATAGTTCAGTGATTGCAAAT
Result: false

Request: Entry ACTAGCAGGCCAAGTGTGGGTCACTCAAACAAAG : is its PBM binding z-score no less than 2?
Result: false

Request: Decide: PBM binding z-score of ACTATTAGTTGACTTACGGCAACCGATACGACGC >= 2?
Result: false

Request: Confirm if PBM binding z-score reported for the sequence CAAACTAGGGCAAGGTCAAAGTCGGTTTGTGCCA is 2 or above.
Result: true

* * *

- System: PPARg:RXRa 30nM:10nM, anti-RXR (NR concentration 30 nM, RXRa partner concentration 10 nM)
- test name: PBM binding z-score (relative to random genomic background probes); higher = stronger binding; sequences stand for … in GC…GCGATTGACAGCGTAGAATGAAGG
PBM binding z-score overview
Reply briefly: the number, and no unit.

Consider the worked cases shown below.
Assay PPARg:RXRa 30nM:10nM, anti-RXR (NR concentration 30 nM, RXRa partner concentration 10 nM), sample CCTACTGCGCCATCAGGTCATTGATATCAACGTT , PBM binding z-score read: 0.212

The sequence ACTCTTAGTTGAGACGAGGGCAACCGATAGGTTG on PPARg:RXRa 30nM:10nM, anti-RXR (NR concentration 30 nM, RXRa partner concentration 10 nM): PBM binding z-score was -0.348

Hey, PPARg:RXRa 30nM:10nM, anti-RXR (NR concentration 30 nM, RXRa partner concentration 10 nM) data for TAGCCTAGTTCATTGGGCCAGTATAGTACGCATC : PBM binding z-score came out at -0.446

Others:
// sequence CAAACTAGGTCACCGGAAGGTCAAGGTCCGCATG , assay PPARg:RXRa 30nM:10nM, anti-RXR (NR concentration 30 nM, RXRa partner concentration 10 nM), PBM binding z-score value: 5.66

Summary line: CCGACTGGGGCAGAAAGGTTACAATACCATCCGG , PPARg:RXRa 30nM:10nM, anti-RXR (NR concentration 30 nM, RXRa partner concentration 10 nM), reported PBM binding z-score = 0.821

* * *

- System: PPARg:RXRa 270nM:90nM, anti-RXR (NR concentration 270 nM, RXRa partner concentration 90 nM)
- test name: PBM binding z-score (relative to random genomic background probes); higher = stronger binding; sequences stand for … in GC…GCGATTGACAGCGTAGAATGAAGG
measured property: PBM binding z-score
Reply with the value as a number alone.

Use the examples below as a reference point.
Recorded PBM binding z-score (sequence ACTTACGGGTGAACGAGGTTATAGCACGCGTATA ): 1.35

# PBM binding z-score (sequence: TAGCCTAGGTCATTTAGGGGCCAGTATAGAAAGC ) is 2.15

Others:
Given item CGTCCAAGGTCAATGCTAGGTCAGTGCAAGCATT , the value recorded as its PBM binding z-score is 4.26

* * *

- Test system: RARg:RXRa (NR concentration 270 nM, RXRa partner concentration 90 nM)
- test name: PBM binding z-score (relative to random genomic background probes); higher = stronger binding; sequences stand for … in GC…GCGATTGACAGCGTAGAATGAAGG
measured property: PBM binding z-score
Give the figure by itself; no unit, no explanation.

As a guide, the following entries are already answered.
Observed PBM binding z-score, RARg:RXRa (NR concentration 270 nM, RXRa partner concentration 90 nM), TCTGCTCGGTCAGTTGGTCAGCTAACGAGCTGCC : 0.987

PBM binding z-score for RARg:RXRa (NR concentration 270 nM, RXRa partner concentration 90 nM) with input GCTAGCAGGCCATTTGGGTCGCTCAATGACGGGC equals -0.381

// sequence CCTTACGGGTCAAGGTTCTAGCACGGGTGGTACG , assay RARg:RXRa (NR concentration 270 nM, RXRa partner concentration 90 nM), PBM binding z-score value: 4.78

Entry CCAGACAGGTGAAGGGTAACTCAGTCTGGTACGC under RARg:RXRa (NR concentration 270 nM, RXRa partner concentration 90 nM) had PBM binding z-score of 0.492

Measured on RARg:RXRa (NR concentration 270 nM, RXRa partner concentration 90 nM), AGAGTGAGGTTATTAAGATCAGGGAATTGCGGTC has a documented PBM binding z-score of 1.12

More entries:
Entry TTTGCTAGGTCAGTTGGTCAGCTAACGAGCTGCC under RARg:RXRa (NR concentration 270 nM, RXRa partner concentration 90 nM) had PBM binding z-score of 2.76

Record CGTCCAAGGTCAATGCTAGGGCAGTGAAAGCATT ; system RARg:RXRa (NR concentration 270 nM, RXRa partner concentration 90 nM); PBM binding z-score = 6.47

Reading of PBM binding z-score for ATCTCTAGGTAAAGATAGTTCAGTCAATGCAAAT with RARg:RXRa (NR concentration 270 nM, RXRa partner concentration 90 nM): 0.494

Query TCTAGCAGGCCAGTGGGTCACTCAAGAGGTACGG on RARg:RXRa (NR concentration 270 nM, RXRa partner concentration 90 nM); PBM binding z-score returned: 1.37

# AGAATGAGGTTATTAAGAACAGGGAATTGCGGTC with RARg:RXRa (NR concentration 270 nM, RXRa partner concentration 90 nM): PBM binding z-score is 1.14
